Test system: Staphylococcus aureus 503
Assay: MIC, standard strain 6
Format: cell-based
Details: Staphylococcus aureus; S. aureus 503; two-fold dilution, Muller Hinton agar, 10^7 CFU/ml, 37° C., 18 hours; read-out: Minimal Inhibitory Concentration(MIC)
Measure: MIC
Record the result as a number with its unit.

Here is how some molecules turned out for MIC.
>>> print(df.to_string())
                            compound_string              system_tested     result
0  CCO/N=C(\C(=O)N[C@@H]1C(=O)N2C(C(=O)[O-])=C(C[n+]3ccc(C(N)=O)c4c3CCC4)CS[C@H]12)c1csc(N)n1  Staphylococcus aureus 503  391 µg/mL
1  CO/N=C(\C(=O)N[C@@H]1C(=O)N2C(C(=O)[O-])=C(C[n+]3ccc(C(N)=O)c4c3CCC4)CS[C@H]12)c1csc(N)n1  Staphylococcus aureus 503  391 µg/mL

Let us examine a further case.
# MIC (molecule: CO/N=C(\C(=O)N[C@@H]1C(=O)N2C(C(=O)[O-])=C(C[n+]3ccc(C(=O)O)c4c3CCC4)CS[C@H]12)c1csc(N)n1 ) is 3120 µg/mL

* * *

Reported MIC values are given for each entry in this list.
Test system: Enterobacter cloacae 1321 E
Test: MIC, standard strain 20
Type: cell-based
Details: E. cloacae 1321 E, two-fold dilution, Muller Hinton agar, 10^7 CFU/ml, 37° C., 18 hours, read-out: Minimal Inhibitory Concentration(MIC)
Provide only the numeric value, understood in µg/mL.

Here is how some compounds turned out for MIC.
>>> df
                                   compound  measure  quantitative_result
0  CO/N=C(\C(=O)N[C@@H]1C(=O)N2C(C(=O)[O-])=C(C[n+]3ccc(NC=O)c4c3CCC4)CS[C@H]12)c1csc(N)n1      MIC                    7
1  CO/N=C(\C(=O)N[C@@H]1C(=O)N2C(C(=O)[O-])=C(C[n+]3ccc(C(=O)O)c4c3CCC4)CS[C@H]12)c1csc(N)n1      MIC                   25

Let us examine a further case.
# MIC (compound: CO/N=C(\C(=O)N[C@@H]1C(=O)N2C(C(=O)[O-])=C(C[n+]3cccc4c3CCC4)CS[C@H]12)c1csc(N)n1 [cefpirome, reference compound] ) is 13

* * *

Experiment: acute toxicity test
Conditions: in vivo; acute toxicity, intravenous injection
Measure: LD50

# LD50 (compound: CO/N=C(\C(=O)N[C@@H]1C(=O)N2C(C(=O)[O-])=C(C[n+]3ccc(C(N)=S)c4c3CCC4)CS[C@H]12)c1csc(N)n1 [Example 5] ) is > 3000 mg/kg

* * *

System: Pseudomonas aeruginosa 1771M
Assay: MIC, standard strain 15
Format: cell-based
Conditions: 18 h, read-out: Minimal Inhibitory Concentration(MIC)
Method: In order to illustrate antibiotic effectiveness of the compounds of the present invention, the minimal inhibitory concentrations (MIC's) of the representative compounds were determined against standard strains and compared with ceftazidime and cefpirome, which were used as control compounds. […]
Measure: MIC
Record the result as a number with its unit.

Molecule	Result
NC(=O)c1cc[n+](CC2=C(C(=O)[O-])N3C(=O)[C@@H](NC(=O)/C(=N\OCCF)c4csc(N)n4)[C@H]3SC2)c2c1CCC2	391 µg/mL

# MIC (molecule: CO/N=C(\C(=O)N[C@@H]1C(=O)N2C(C(=O)[O-])=C(C[n+]3cccc4c3CCC4)CS[C@H]12)c1csc(N)n1 [cefpirome, reference compound] ) is 195 µg/mL

# MIC (molecule: CO/N=C(\C(=O)N[C@@H]1C(=O)N2C(C(=O)[O-])=C(C[n+]3ccc(C(N)=S)c4c3CCC4)CS[C@H]12)c1csc(N)n1 ) is 391 µg/mL

# MIC (molecule: CCOC(=O)c1cc[n+](CC2=C(C(=O)[O-])N3C(=O)[C@@H](NC(=O)/C(=N\OC)c4csc(N)n4)[C@H]3SC2)c2c1CCC2 ) is 391 µg/mL

# MIC (molecule: CC(C)(O/N=C(\C(=O)N[C@@H]1C(=O)N2C(C(=O)[O-])=C(C[n+]3ccccc3)CS[C@H]12)c1csc(N)n1)C(=O)O [ceftazidime, reference compound] ) is 98 µg/mL

# MIC (molecule: CO/N=C(\C(=O)N[C@@H]1C(=O)N2C(C(=O)[O-])=C(C[n+]3ccc(NC=O)c4c3CCC4)CS[C@H]12)c1csc(N)n1 ) is 1560 µg/mL

# MIC (molecule: CO/N=C(\C(=O)N[C@@H]1C(=O)N2C(C(=O)[O-])=C(C[n+]3ccc(-c4nc(C)cs4)c4c3CCC4)CS[C@H]12)c1csc(N)n1 ) is 1560 µg/mL

# MIC (molecule: CCO/N=C(\C(=O)N[C@@H]1C(=O)N2C(C(=O)[O-])=C(C[n+]3ccc(C(N)=O)c4c3CCC4)CS[C@H]12)c1csc(N)n1 ) is 195 µg/mL

Origin of values: patent US5593985A
